The reported measurements were obtained from PubChem BioAssay (EPA / NIEHS).

assay: ATG_MRE_CIS: Attagene CIS-FACTORIAL HepG2 Assay for human Metal Responsive Element (MRE) (AID 2282954); conditions: HepG2 MRE cis-reporter transcription, Attagene multiplex; actives raise or lower the signal
Activity calls are given as the source filed them. How the source made its calls: active means hit-call score of the fitted dose curve at least 0.9, where 1 is the maximum; inactive means score below 0.9.
Labels: active, inactive

INSERT INTO measurements (molecule, assigned_class) VALUES
  ('Cc1cc(C)c(C)c(O)c1', 'inactive'),
  ('c1ccc2c(c1)ccc1cc3c(ccc4ccccc43)cc12', 'inactive'),
  ('Nc1ccc(Oc2ccc(N)c(N)c2)cc1', 'inactive'),
  ('O=C1C(N(CO)C(=O)NCO)N(CO)C(=O)N1CO (stereo not drawn)', 'inactive'),
  ('S=C(NC1CCCCC1)NC1CCCCC1', 'inactive'),
  ('C=C(C)[C@@H]1CCC2=CCC[C@@H](C)[C@]2(C)C1', 'active'),
  ('CO[Si](OC)(OC)c1ccccc1', 'inactive'),
  ('CC(CC=O)CCCC(C)(C)O (stereo not drawn)', 'inactive'),
  ('COC(=O)c1ccc2cc(C(=O)OC)ccc2c1', 'inactive'),
  ('C#CC1(O)CC[C@H]2[C@@H]3CCC4=CCCC[C@@H]4[C@H]3CC[C@@]21C (stereo partly drawn)', 'inactive'),
  ('CCCCCCCCCCCCCCCC[n+]1ccccc1', 'inactive'),
  ('COc1ccc2nc(N)sc2c1', 'inactive'),
  ('CC(=O)Nc1ccc2c(c1)Cc1cc(NC(C)=O)ccc1-2', 'inactive');
